# target_or_test_system: human OT7T175 (metastin receptor) (human, UniProt Q969F8 1-398)
# Sequence (Q969F8 whole entry L364H): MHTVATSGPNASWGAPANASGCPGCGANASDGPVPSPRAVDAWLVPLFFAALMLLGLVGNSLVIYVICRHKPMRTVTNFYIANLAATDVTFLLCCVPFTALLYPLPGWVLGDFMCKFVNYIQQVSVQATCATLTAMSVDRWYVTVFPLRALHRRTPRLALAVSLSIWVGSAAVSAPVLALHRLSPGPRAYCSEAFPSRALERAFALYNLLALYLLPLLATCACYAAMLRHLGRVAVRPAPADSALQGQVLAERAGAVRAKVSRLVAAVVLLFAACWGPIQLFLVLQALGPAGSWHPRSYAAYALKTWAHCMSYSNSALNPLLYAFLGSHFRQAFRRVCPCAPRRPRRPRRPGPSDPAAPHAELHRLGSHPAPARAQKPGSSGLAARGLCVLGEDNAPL
# test_description: cell-based or functional assay
Non-standard residues stand in square brackets, D forms with d. No end group written: not given here. *: point of attachment. Arg(Me) = CNC(=N)NCCC[C@H](N)C(=O)O; Hydrocinnamoyl = O=C(CCc1ccccc1)*; azaGly = NNC(=O)O
parameter_measured: Ca ion level-increasing activity (FLIPR, 40 s) (EC50/MS10 EC50)
Return type: number; implicit unit EC50/MS10 EC50.

// known answers, use as guide
binder | observed
[dY]NWNSFGL[Arg(Me)]F-NH2 (also: bond 6-7 CONH replaced by CSNH (thioamide), also called Compound No. 296) [[6Ψ7,CSNH,D-Tyr1,Arg(Me)9]MS10] | 5.2
Hydrocinnamoyl-NSF[azaGly]L[Arg(Me)]F-NH2 (also called Compound No. 269) [des(1-3)-3-Phenylpropionyl-[AzaGly7,Arg(Me)9]MS10] | 3.4

Lookup: Fill in the blank: the reported Ca ion level-increasing activity (FLIPR, 40 s) of [dY]NWNSFGL[Arg(Me)]F-NH2 (also: bond 6-7 CONH replaced by NHCO (reversed)) [[6Ψ7,NHCO,D-Tyr1,Arg(Me)9]MS10] is ____.
Found: 3.1
